Biological target: SspB VheI (S. gordonii)
Assay: SPR binding of SRCR peptide to immobilized surface protein (Example 3)
Protocol: Binding of the SRCR peptide […] (SEQ ID NO: 10) to immobilized bacterial surface proteins was determined using procedures as described in Example 1. The interaction of the SRCR peptide […] (SEQ ID NO:10) with immobilized bacterial surface proteins AgI/II, SspB and GbpC as examined by surface plasmon resonance studies are shown in FIGS. 27A, 27B and 27C respectively, and binding affinities determined from these studies are listed in Table 8.
recorded_endpoint: pKd
Remember, pKd is on a log scale: it is -log10 of the molar concentration.

Request: What value of pKd has been recorded for this entry: ETNDANVVARQL [SRCR peptide]
Response: 8.15

From: patent US20160331662A1
